Entry source: PubChem BioAssay (EPA / NIEHS)

Biological target: Peroxisome proliferator-activated receptor gamma (Homo sapiens) (UniProt P37231)
Sequence (P37231 whole entry, looked up): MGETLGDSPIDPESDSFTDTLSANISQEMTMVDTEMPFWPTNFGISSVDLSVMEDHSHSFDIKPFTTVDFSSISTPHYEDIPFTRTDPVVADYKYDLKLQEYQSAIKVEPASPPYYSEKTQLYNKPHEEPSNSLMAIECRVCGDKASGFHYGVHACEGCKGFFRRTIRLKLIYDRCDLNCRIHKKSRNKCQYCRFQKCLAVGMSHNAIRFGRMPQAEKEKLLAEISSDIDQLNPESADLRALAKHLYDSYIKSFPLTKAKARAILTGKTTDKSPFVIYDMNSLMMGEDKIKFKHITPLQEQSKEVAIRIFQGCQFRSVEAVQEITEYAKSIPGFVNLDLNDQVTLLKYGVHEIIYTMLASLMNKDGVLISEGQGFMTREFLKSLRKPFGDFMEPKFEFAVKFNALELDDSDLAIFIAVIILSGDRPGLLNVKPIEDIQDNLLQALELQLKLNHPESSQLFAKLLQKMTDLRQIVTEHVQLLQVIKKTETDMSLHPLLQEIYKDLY
Experiment: NVS_NR_hPPARg: NovaScreen (NVS) Nuclear Receptor Binding Assay for human Peroxisome Proliferator-activated Receptor gamma (PPARg) (AID 2283370)
Inconclusive results are not listed. Activity calls are given as the source filed them. The calls were made as follows: active = hit-call score of the fitted dose curve at least 0.9, where 1 is the maximum; inconclusive = response in the unintended direction; inactive = score below 0.9.
Pick from active, inactive when you respond.

Illustrative cases are given below, each with its answer.
Smiles	Assigned label
CC(C)(O)c1coc(S(=O)(=O)NC(=O)Nc2c3c(cc4c2CCC4)CCC3)c1	inactive
COC(=O)c1c(Cl)c(Cl)c(C(=O)OC)c(Cl)c1Cl	inactive

Would you kindly look at the next entry?
Problem: Test call, this molecule: `Cn1c(=O)cc(Oc2ccc(F)cc2F)c2cnc(NCC(C)(C)O)nc21`
Result: active

* * *

Target: Peroxisome proliferator-activated receptor gamma (Homo sapiens)
Experiment: OT_PPARg_PPARgSRC1_0480: Odyssey Thera (OT) 8-hour Protein-Complementation Assay for Peroxisome Proliferator-activated Receptor Gamma / SRC-1 Co-activator (AID 2283387);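 also: nuclear to cytoplasmic split Venus YFP fluorescence ratio reporting PPARg SRC-1 interaction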
Inconclusive results are not listed. Calls of active or inactive are those of the source. The calls were made as follows: active = hit-call score of the fitted dose curve at least 0.9, where 1 is the maximum; inconclusive = response in the unintended direction; inactive = score below 0.9.
Quantity: outcome

Consider the following illustrative entries.
Molecule	outcome
CCCCC(CC)COC(=O)c1ccc(C(=O)OCC(CC)CCCC)cc1 (configuration not stated)	inactive
CCCCC(CC)COC(=O)CCCCCCCCC(=O)OCC(CC)CCCC (configuration not stated)	inactive
CCCN(C1CCN(C(=O)C2CCNCC2)CC1)[C@@H]1CCc2ccc(OC)cc2C1	inactive
Nc1cccc(N)c1	inactive
CCN(C(=O)c1cc(C)cc(OC[C@H](C)Nc2ccncc2)c1)C(C)C	inactive

Problem: Tell me measured outcome for `COc1ccc2sc(C(=O)Nc3nnn[nH]3)c(OC(C)C)c2c1` please.
Result: inactive

Problem: Tell me measured outcome for `CCn1nc(Cc2ccccc2)cc1C1CCN(C[C@H]2C[C@H](N(C)[C@@H](C(=O)O)C(C)C)C[C@@H]2c2cccc(F)c2)CC1` please.
Result: inactive

* * *

Read-out: Monocyte Chemoattractant Protein-1 (MCP1), CCL2 (gene 6347)
Experiment: BSK_4H_MCP1: BioMAP Diversity Plus: 4H Assay for Monocyte Chemoattractant Protein-1 (MCP1) Biomarker Activity (AID 2283018)
Details: primary human endothelial cells (HUVEC); actives raise or lower the signal
The source made the active and inactive calls. Rule for the calls: active = hit-call score of the fitted dose curve at least 0.9, where 1 is the maximum; inactive = score below 0.9.
Pick from active, inactive when you respond.

Compound	Assigned label
CC/C(=C\C(=N/O)C(N)=O)C(C)[N+](=O)[O-] (stereo unspecified)	inactive
Cc1ccc(N)cc1O	inactive
COc1cccc(-c2ccc(/C=C\CN3CCCCCC3)cc2Cl)c1	active
O=C(CCCCCCCCc1cccnc1)N1CCC(C=C(c2ccccc2)c2ccccc2)CC1	active

Problem: Test call, this compound: `O=C(O)CCN(C1(C(=O)NO)CCCC1)S(=O)(=O)c1ccc(Oc2ccc(F)cc2)cc1`
Result: inactive

Problem: Test call, this compound: `CN(C)c1ccc(N=NS(=O)(=O)O)cc1`
Result: inactive

* * *

Read-out: Cyclin Dependent Kinase Inhibitor 1A (CDKN1A), CDKN1A (gene 1026)
Test: LTEA_HepaRG_CDKN1A: Life Technologies and Expression Analysis (LTEA) Assay for Cyclin Dependent Kinase Inhibitor 1A (CDKN1A) using HepaRG (AID 2283450)
Details: mRNA level, 48 h; actives raise or lower the signal
Calls of active or inactive are those of the source. Rule for the calls: active = hit-call score of the fitted dose curve at least 0.9, where 1 is the maximum; inactive = score below 0.9.
Pick from true (1) for active, false (0) for inactive when you respond.

Molecule	Assigned label
CC(C)=CCCC(C)=CC=O	false (0)
CCN(C(=O)c1cc(C)cc(OC[C@H](C)Nc2ccncc2)c1)C(C)C	false (0)
Cc1ccc(C)c(O)c1	false (0)
On1ccccc1=S	false (0)
O=C1CCCCCN1	false (0)

Problem: Test call, this molecule: `C1=CCCC=CCCC=CCC1`
Result: false (0)

Problem: Test call, this molecule: `O=P(OC(CCl)CCl)(OC(CCl)CCl)OC(CCl)CCl`
Result: true (1)

* * *

Read-out: ABC Transporter (ABCB11), ABCB11 (gene 8647)
Assay: LTEA_HepaRG_ABCB11: Life Technologies and Expression Analysis (LTEA) Assay for ABC Transporter (ABCB11) using HepaRG (AID 2283463)
Settings: mRNA level, 48 h; actives raise or lower the signal
The source made the active and inactive calls. How the source made its calls: active means hit-call score of the fitted dose curve at least 0.9, where 1 is the maximum; inactive means score below 0.9.
Pick from TRUE = active, FALSE = inactive when you respond.

Illustrative cases are given below, each with its answer.
Molecule	Assigned label
COC(=O)c1c(Cl)c(Cl)c(C(=O)OC)c(Cl)c1Cl	FALSE
COc1ccc2sc(C(=O)Nc3nnn[nH]3)c(OC(C)C)c2c1	TRUE
CC(C)c1cccc(C(C)C)c1N1C(=O)c2ccc(O)cc2C1=O	TRUE
Cc1ccc(O)cc1	FALSE
CC(C)(O)c1coc(S(=O)(=O)NC(=O)Nc2c3c(cc4c2CCC4)CCC3)c1	TRUE

Problem: Test call, this molecule: `CC[C@H]1CC[C@H](NCc2cc3c(cc2OC)[C@H]2C[C@H]2C(=O)N3C)[C@H](c2ccccc2)N1`
Result: FALSE

Problem: Test call, this molecule: CNS(=O)(=O)c1cc(C(=O)N2CCC(CCN3C4CCC3CC(n3c(C)nc5ccccc53)C4)(c3cccc(F)c3)CC2)c(Cl)cc1F (stereo unspecified)
Result: TRUE

Problem: Test call, this molecule: `COCCOCCOCCOC`
Result: FALSE

Problem: Test call, this molecule: O=C1CCC(N2C(=O)c3ccccc3C2=O)C(=O)N1 (stereo unspecified)
Result: FALSE

Problem: Test call, this molecule: CCOC(=O)c1ccc(C2CCC(NC[C@H](O)COc3ccc(O)c(NS(C)(=O)=O)c3)CC2)cc1 (stereo partly specified)
Result: FALSE

Problem: Test call, this molecule: `CC(C)=CCC/C(C)=C/CO`
Result: FALSE

* * *

Read-out: Interleukin-1 alpha (IL1a), IL1A (gene 3552)
Assay: BSK_LPS_IL1a: BioMAP Diversity Plus: LPS Assay for Interleukin-1 alpha (IL1a) Biomarker Activity (AID 2283080)
Details: primary human HUVEC with PBMC; actives raise or lower the signal
Description: BSK_LPS is a cell-based, multiplexed-readout assay that uses umbilical vein endothelium and peripheral blood mononuclear cells, a human vascular primary cell co-culture, with measurements taken at 24 hours after chemical dosing in a 96-well plate.BSK_LPS_IL1a is an assay component measured in the BSK_LPS assay. It measures IL-a antibody related to regulation of gene expression using ELISA technology.Data from the assay component BSK_LPS_IL1a was analyzed into 1 assay endpoint. […]
Activity calls are given as the source filed them. Rule for the calls: active = hit-call score of the fitted dose curve at least 0.9, where 1 is the maximum; inactive = score below 0.9.
Pick from active, inactive when you respond.

Illustrative cases are given below, each with its answer.
Compound	Assigned label
O=P(OC(CCl)CCl)(OC(CCl)CCl)OC(CCl)CCl	inactive
On1ccccc1=S	active
O=C(O)c1cccc(N(Cc2cccnc2)c2ccc(OC(F)F)c(OC(F)F)c2)c1	active
Nc1nc2ncc(CNc3ccc(C(=O)N[C@@H](CCC(=O)O)C(=O)O)cc3)nc2c(=O)[nH]1	inactive
O=C1OC(=O)C2C3C=CC(C3)C12 (stereo unspecified)	inactive
CN(C)c1ccc(N=NS(=O)(=O)O)cc1	inactive
CCOCCOCCOCCO	inactive
O=C(O)CCN(C1(C(=O)NO)CCCC1)S(=O)(=O)c1ccc(Oc2ccc(F)cc2)cc1	inactive
CC(=O)c1ccc2c(c1)[C@H](NC(=O)c1ccc(F)cc1)[C@@H](O)C(C)(C)O2	inactive
CCCCCCCCO	inactive

Problem: Test call, this compound: `CCCC(=O)OCC`
Result: inactive

Problem: Test call, this compound: `CCc1cc(SCc2sc(-c3ccc(C(F)(F)F)cc3)nc2CN2CCN(c3ccc(OC)cc3)CC2)ccc1OCC(=O)O`
Result: active

Problem: Test call, this compound: `CCn1nc(Cc2ccccc2)cc1C1CCN(C[C@H]2C[C@H](N(C)[C@@H](C(=O)O)C(C)C)C[C@@H]2c2cccc(F)c2)CC1`
Result: inactive

Problem: Test call, this compound: `Cc1c(-c2cccnc2)c2ccccc2n1CCCCC(=O)O`
Result: inactive

Problem: Test call, this compound: `CC[C@H]1OC(=O)[C@H](C)[C@@H](O[C@H]2C[C@@](C)(OC)[C@@H](O)[C@H](C)O2)[C@H](C)[C@@H](O[C@@H]2O[C@H](C)C[C@H](N(C)C)[C@H]2O)[C@](C)(O)C[C@@H](C)C(=O)[C@H](C)[C@@H](O)[C@]1(C)O`
Result: inactive

Problem: Test call, this compound: `CC(C)c1cccc(C(C)C)c1N1C(=O)c2ccc(O)cc2C1=O`
Result: inactive

Problem: Test call, this compound: `CCC(C)(C)C(=O)O[C@H]1C[C@@H](C)C=C2C=C[C@H](C)[C@H](CC[C@@H]3C[C@@H](O)CC(=O)O3)[C@H]21`
Result: active

* * *

Read-out: Apoptosis regulator Bcl-2 (Homo sapiens)
Test: LTEA_HepaRG_BCL2: Life Technologies and Expression Analysis (LTEA) Assay for Bcl-2 gene using HepaRG (AID 2283475);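 also: BCL2 transcript by TaqMan qRT-PCR normalised to ACTB GAPDH and POLR2A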
Settings: mRNA level, 48 h; actives raise or lower the signal
Procedure: LTEA_HepaRG is a cell based, multiplexed-readout assay that uses HepaRG, a human liver cell line, with measurements taken at 48 hours after chemical dosing on a 96-well plate.LTEA_HepaRG_BCL2 is one of 102 assay component(s) measured in the LTEA HepaRG cell culture assay. It is a marker of Cell proliferation, survival, death.Data from the assay component LTEA_HepaRG_BCL2 was analyzed into 1 endpoint. […]
Activity calls are given as the source filed them. The calls were made as follows: active = hit-call score of the fitted dose curve at least 0.9, where 1 is the maximum; inactive = score below 0.9.
Quantity: outcome

Consider the following illustrative entries.
Compound	Quantity	Observed value
CCN(C(=O)c1cc(C)cc(OC[C@H](C)Nc2ccncc2)c1)C(C)C	outcome	inactive
C=CCCCCCCCCC(=O)O	outcome	inactive
CCNc1ccccc1	outcome	inactive
O=C(O)CCN(C1(C(=O)NO)CCCC1)S(=O)(=O)c1ccc(Oc2ccc(F)cc2)cc1	outcome	inactive

Problem: Tell me measured outcome for O=C1OC(=O)C2C3C=CC(C3)C12 (stereo unspecified) please.
Result: inactive

Problem: Tell me measured outcome for `CCC(C)(C)C(=O)O[C@H]1C[C@@H](C)C=C2C=C[C@H](C)[C@H](CC[C@@H]3C[C@@H](O)CC(=O)O3)[C@H]21` please.
Result: inactive
